Measured values drawn from ChEMBL document CHEMBL3297654 for this set.

# System: HL-60
# TEST NAME: Induction of necrosis in human HL60 cells at 20 uM after 48 hrs by Hoechst 33258/propidium iodide staining based phase contrast microscopic analysis
# Format: functional
Known Activity of a selection of molecules

>  <GIVEN SMILES>
CC1(C)CC[C@]2(C(=O)O)CC[C@]3(C)C(=CC[C@@H]4[C@@]5(C)CC[C@H](O)[C@@](C)(C=O)[C@@H]5CC[C@]43C)[C@@H]2C1

>  <Activity / %>
4

$$$$
>  <GIVEN SMILES>
CC(=O)O[C@H]1CC[C@]2(C)[C@H]3CC=C4[C@@H]5CC(C)(C)CC[C@]5(C(=O)OCc5ccccc5)CC[C@@]4(C)[C@]3(C)CC[C@H]2[C@]1(C)/C=N/O

>  <Activity / %>
50

$$$$
>  <GIVEN SMILES>
CC1(C)CC[C@]2(C(=O)O)CC[C@]3(C)C(=CC[C@@H]4[C@@]5(C)CC[C@H](O)[C@@](C)(/C=N/O)[C@@H]5CC[C@]43C)[C@@H]2C1

>  <Activity / %>
3

$$$$
>  <GIVEN SMILES>
CC(=O)O[C@H]1CC[C@]2(C)[C@H]3CC=C4[C@@H]5CC(C)(C)CC[C@]5(C(=O)O)CC[C@@]4(C)[C@]3(C)CC[C@H]2[C@]1(C)/C=N/NC(N)=S

>  <Activity / %>
67

$$$$
>  <GIVEN SMILES>
CC(=O)O[C@H]1CC[C@]2(C)[C@H]3CC=C4[C@@H]5CC(C)(C)CC[C@]5(C(=O)OCc5ccccc5)CC[C@@]4(C)[C@]3(C)CC[C@H]2[C@]1(C)C=O

>  <Activity / %>
51

$$$$

---

# Test system: Bacillus thuringiensis
# TEST NAME: Antimicrobial activity against Bacillus thuringiensis assessed as zone of inhibition at 30 uL for 24 hrs at 30 degC by disk diffusion test
# Format: functional
Active and inactive are the calls of the source. The rule behind the calls is not given here.

>  <GIVEN SMILES>
CC(=O)O[C@H]1CC[C@]2(C)[C@H]3CC=C4[C@@H]5CC(C)(C)CC[C@]5(C(=O)OCc5ccccc5)CC[C@@]4(C)[C@]3(C)CC[C@H]2[C@]1(C)C=O

>  <diameter of the inhibition zone (DIZ)>
inactive

$$$$
>  <GIVEN SMILES>
CC1(C)CC[C@]2(C(=O)OCc3ccccc3)CC[C@]3(C)C(=CC[C@@H]4[C@@]5(C)CC[C@H](O)[C@@](C)(C=O)[C@@H]5CC[C@]43C)[C@@H]2C1

>  <diameter of the inhibition zone (DIZ)>
inactive

$$$$
>  <GIVEN SMILES>
CC(=O)O[C@H]1CC[C@]2(C)[C@H]3CC=C4[C@@H]5CC(C)(C)CC[C@]5(C(=O)OCc5ccccc5)CC[C@@]4(C)[C@]3(C)CC[C@H]2[C@]1(C)/C=N/O

>  <diameter of the inhibition zone (DIZ)>
inactive

$$$$
>  <GIVEN SMILES>
CC1(C)CC[C@]2(C(=O)OCc3ccccc3)CC[C@]3(C)C(=CC[C@@H]4[C@@]5(C)CC[C@H](O)[C@@](C)(/C=N/NC(N)=S)[C@@H]5CC[C@]43C)[C@@H]2C1

>  <diameter of the inhibition zone (DIZ)>
inactive

$$$$
>  <GIVEN SMILES>
CC(=O)O[C@H]1CC[C@]2(C)[C@H]3CC=C4[C@@H]5CC(C)(C)CC[C@]5(C(=O)O)CC[C@@]4(C)[C@]3(C)CC[C@H]2[C@]1(C)/C=N/NC(N)=S

>  <diameter of the inhibition zone (DIZ)>
14 mm

$$$$
>  <GIVEN SMILES>
CC1(C)CC[C@]2(C(=O)O)CC[C@]3(C)C(=CC[C@@H]4[C@@]5(C)CC[C@H](O)[C@@](C)(/C=N/O)[C@@H]5CC[C@]43C)[C@@H]2C1

>  <diameter of the inhibition zone (DIZ)>
10 mm

$$$$
>  <GIVEN SMILES>
CC1(C)CC[C@]2(C(=O)OCc3ccccc3)CC[C@]3(C)C(=CC[C@@H]4[C@@]5(C)CC[C@H](O)[C@@](C)(/C=N/O)[C@@H]5CC[C@]43C)[C@@H]2C1

>  <diameter of the inhibition zone (DIZ)>
inactive

$$$$
>  <GIVEN SMILES>
CC1(C)CC[C@]2(C(=O)O)CC[C@]3(C)C(=CC[C@@H]4[C@@]5(C)CC[C@H](O)[C@@](C)(C=O)[C@@H]5CC[C@]43C)[C@@H]2C1

>  <diameter of the inhibition zone (DIZ)>
13 mm

$$$$
>  <GIVEN SMILES>
CC(=O)O[C@H]1CC[C@]2(C)[C@H]3CC=C4[C@@H]5CC(C)(C)CC[C@]5(C(=O)O)CC[C@@]4(C)[C@]3(C)CC[C@H]2[C@]1(C)C=O

>  <diameter of the inhibition zone (DIZ)>
10 mm

$$$$
>  <GIVEN SMILES>
CC(=O)O[C@H]1CC[C@]2(C)[C@H]3CC=C4[C@@H]5CC(C)(C)CC[C@]5(C(=O)O)CC[C@@]4(C)[C@]3(C)CC[C@H]2[C@]1(C)/C=N\O

>  <diameter of the inhibition zone (DIZ)>
12 mm

$$$$
